The reported numbers originate from the supplement of paper PMC10307832.

Tested on: NCI-H727
assaySummary: relative viability (nuclei count vs DMSO), 5 days (fraction); higher = more cells survive
conditionInfo: first compound 2.53 µM
Provide the reported relative viability of each item.
The reply should be a number, written without any unit.

Ask: Bench note: what relative viability did Nc1cccc2c1CN(C1CCC(=O)NC1=O)C2=O (centres undefined) [Lenalidomide] + O=C(c1cc(Cc2n[nH]c(=O)c3ccccc23)ccc1F)N1CCN(C(=O)C2CC2)CC1 [Olaparib] (partner 8 µM) show?
Reply: 0.633

Ask: Nc1cccc2c1CN(C1CCC(=O)NC1=O)C2=O (centres undefined) [Lenalidomide] + CS(=O)(=O)CCNCc1ccc(-c2ccc3ncnc(Nc4ccc(OCc5cccc(F)c5)c(Cl)c4)c3c2)o1 [Lapatinib] (partner 2 µM) , same question.
Reply: 1

Ask: Please answer likewise for Nc1cccc2c1CN(C1CCC(=O)NC1=O)C2=O (centres undefined) [Lenalidomide] + CC(=O)c1c(C)c2cnc(Nc3ccc(N4CCNCC4)cn3)nc2n(C2CCCC2)c1=O [Palbociclib] (partner 0.5 µM)
Reply: 0.64

Ask: Then this molecule: Nc1cccc2c1CN(C1CCC(=O)NC1=O)C2=O (centres undefined) [Lenalidomide] + Cc1nc(Nc2ncc(C(=O)Nc3c(C)cccc3Cl)s2)cc(N2CCN(CCO)CC2)n1 [Dasatinib] (partner 0.075 µM)
Reply: 0.335

* * *

Test system: COR-L23
assaySummary: relative viability (nuclei count vs DMSO), 5 days (fraction); higher = more cells survive
conditionInfo: first compound 0.002 µM
I'd be grateful if you could share measured relative viability for these entries.
Give the value as a plain number.

Ask: May I ask what relative viability has been recorded for CCNC(=O)c1noc(-c2cc(C(C)C)c(O)cc2O)c1-c1ccc(CN2CCOCC2)cc1 [Luminespib] + COc1cc2c(Oc3ccc(NC(=O)C4(C(=O)Nc5ccc(F)cc5)CC4)cc3F)ccnc2cc1OCCCN1CCOCC1 [Foretinib] (partner 0.25 µM) ?
Reply: 1.06

Ask: Moving on to CCNC(=O)c1noc(-c2cc(C(C)C)c(O)cc2O)c1-c1ccc(CN2CCOCC2)cc1 [Luminespib] + C[C@]1(O)C[C@@H](c2nc(-c3ccc4ccc(-c5ccccc5)nc4c3)c3c(N)nccn32)C1 [Linsitinib] (partner 1 µM)
Reply: 0.946

Ask: // same read-out, input: CCNC(=O)c1noc(-c2cc(C(C)C)c(O)cc2O)c1-c1ccc(CN2CCOCC2)cc1 [Luminespib] + O=C(c1cc(Cc2n[nH]c(=O)c3ccccc23)ccc1F)N1CCN(C(=O)C2CC2)CC1 [Olaparib] (partner 8 µM)
Reply: 0.371

Ask: What about this compound? CCNC(=O)c1noc(-c2cc(C(C)C)c(O)cc2O)c1-c1ccc(CN2CCOCC2)cc1 [Luminespib] + Nc1nc2[nH]cc(CCc3ccc(C(=O)N[C@@H](CCC(=O)O)C(=O)O)cc3)c2c(=O)[nH]1 [Pemetrexed] (partner 0.2 µM)
Reply: 0.19

* * *

Test system: HCC-15
assaySummary: relative viability (nuclei count vs DMSO), 5 days (fraction); higher = more cells survive
conditionInfo: first compound 0.1 µM
experimentalReadout: relative viability
Answer with the value's number alone.

Ask: Short answer please: relative viability, HCC-15, entry Cc1cn(-c2cc(NC(=O)c3ccc(C)c(Nc4nccc(-c5cccnc5)n4)c3)cc(C(F)(F)F)c2)cn1 [Nilotinib] + C[C@@H](Oc1cc(-c2cnn(C3CCNCC3)c2)cnc1N)c1c(Cl)ccc(F)c1Cl [Crizotinib] (partner 1 µM)
Reply: 0.687

Ask: Same for Cc1cn(-c2cc(NC(=O)c3ccc(C)c(Nc4nccc(-c5cccnc5)n4)c3)cc(C(F)(F)F)c2)cn1 [Nilotinib] + Nc1ncn([C@H]2C[C@H](O)[C@@H](CO)O2)c(=O)n1 [Decitabine] (partner 2 µM)
Reply: 0.309

Ask: Param item: Cc1cn(-c2cc(NC(=O)c3ccc(C)c(Nc4nccc(-c5cccnc5)n4)c3)cc(C(F)(F)F)c2)cn1 [Nilotinib] + N=C(N)NC(=N)NCCc1ccccc1 [Phenformin] (partner 250 µM)
Reply: 0.404

* * *

System: NCI-H2085
assaySummary: relative viability (nuclei count vs DMSO), 5 days (fraction); higher = more cells survive
conditionInfo: first compound 8 µM
Please respond with reported relative viability for every item in the list.
Could you respond with only the numeric value?

Ask: Recorded relative viability of Nc1cccc2c1CN(C1CCC(=O)NC1=O)C2=O (stereo unspecified) [Lenalidomide] + COc1cc2c(Oc3ccc(NC(=O)C4(C(=O)Nc5ccc(F)cc5)CC4)cc3F)ccnc2cc1OCCCN1CCOCC1 [Foretinib] (partner 0.25 µM) , please.
Reply: 1.07

Ask: Query Nc1cccc2c1CN(C1CCC(=O)NC1=O)C2=O (stereo unspecified) [Lenalidomide] + CS(=O)(=O)N1CCN(Cc2cc3nc(-c4cccc5[nH]ncc45)nc(N4CCOCC4)c3s2)CC1 [Pictilisib] (partner 1 µM) next
Reply: 0.371

Ask: Another molecule to check: Nc1cccc2c1CN(C1CCC(=O)NC1=O)C2=O (stereo unspecified) [Lenalidomide] + CS(=O)(=O)CCNCc1ccc(-c2ccc3ncnc(Nc4ccc(OCc5cccc(F)c5)c(Cl)c4)c3c2)o1 [Lapatinib] (partner 2 µM)
Reply: 0.477

Ask: Request: Nc1cccc2c1CN(C1CCC(=O)NC1=O)C2=O (stereo unspecified) [Lenalidomide] + Cc1nc(Nc2ncc(C(=O)Nc3c(C)cccc3Cl)s2)cc(N2CCN(CCO)CC2)n1 [Dasatinib] (partner 0.075 µM)
Reply: 0.214

Ask: Would you mind doing Nc1cccc2c1CN(C1CCC(=O)NC1=O)C2=O (stereo unspecified) [Lenalidomide] + CC(=O)c1c(C)c2cnc(Nc3ccc(N4CCNCC4)cn3)nc2n(C2CCCC2)c1=O [Palbociclib] (partner 0.5 µM) as well?
Reply: 0.464

Ask: Note, next up: Nc1cccc2c1CN(C1CCC(=O)NC1=O)C2=O (stereo unspecified) [Lenalidomide] + Cc1nc(NC(=O)N2CCC[C@H]2C(N)=O)sc1-c1ccnc(C(C)(C)C(F)(F)F)c1 [Alpelisib] (partner 2 µM)
Reply: 0.972

* * *

Test system: NCI-H838
assaySummary: relative viability (nuclei count vs DMSO), 5 days (fraction); higher = more cells survive
conditionInfo: first compound 20 µM
Please respond with reported relative viability for every item in the list.
Answer with a bare number; do not write a unit.

Ask: State the recorded relative viability for this entry: Cc1csc(=NC2CCCCC2)n1/N=C/c1ccc(O)c(O)c1O [MIM1] + COc1cc2c(Oc3ccc(NC(=O)C4(C(=O)Nc5ccc(F)cc5)CC4)cc3F)ccnc2cc1OCCCN1CCOCC1 [Foretinib] (partner 0.25 µM)
Reply: 0.657

Ask: Moving on to the next molecule: Cc1csc(=NC2CCCCC2)n1/N=C/c1ccc(O)c(O)c1O [MIM1] + C[C@@H](Oc1cc(-c2cnn(C3CCNCC3)c2)cnc1N)c1c(Cl)ccc(F)c1Cl [Crizotinib] (partner 1 µM)
Reply: 0.699

Ask: Would you kindly repeat that for Cc1csc(=NC2CCCCC2)n1/N=C/c1ccc(O)c(O)c1O [MIM1] + NC(=O)Nc1cc(-c2cccc(F)c2)sc1C(=O)N[C@H]1CCCNC1 [AZD7762] (partner 0.2 µM) ?
Reply: 0.691

Ask: Then this molecule: Cc1csc(=NC2CCCCC2)n1/N=C/c1ccc(O)c(O)c1O [MIM1] + Cc1cc(Nc2cc(N3CCN(C)CC3)nc(Sc3ccc(NC(=O)C4CC4)cc3)n2)n[nH]1 [Tozasertib] (partner 0.1 µM)
Reply: 0.236

Ask: Item: Cc1csc(=NC2CCCCC2)n1/N=C/c1ccc(O)c(O)c1O [MIM1] + Cc1nc(Nc2ncc(C(=O)Nc3c(C)cccc3Cl)s2)cc(N2CCN(CCO)CC2)n1 [Dasatinib] (partner 0.075 µM)
Reply: 0.218

* * *

Tested on: NCI-H460
assaySummary: relative viability (nuclei count vs DMSO), 5 days (fraction); higher = more cells survive
conditionInfo: first compound 20 µM
experimentalReadout: relative viability
# print the numeric value only

Ask: Would you kindly share the measured relative viability for Cc1csc(=NC2CCCCC2)n1/N=C/c1ccc(O)c(O)c1O [MIM1] + N=C(N)NC(=N)NCCc1ccccc1 [Phenformin] (partner 250 µM) ?
Reply: 0.0325

Ask: Also Cc1csc(=NC2CCCCC2)n1/N=C/c1ccc(O)c(O)c1O [MIM1] + Nc1ncn([C@H]2C[C@H](O)[C@@H](CO)O2)c(=O)n1 [Decitabine] (partner 2 µM) ?
Reply: 0.0456

Ask: What do we get for Cc1csc(=NC2CCCCC2)n1/N=C/c1ccc(O)c(O)c1O [MIM1] + O=C(c1cc(Cc2n[nH]c(=O)c3ccccc23)ccc1F)N1CCN(C(=O)C2CC2)CC1 [Olaparib] (partner 8 µM) ?
Reply: 0.0637

Ask: Record: Cc1csc(=NC2CCCCC2)n1/N=C/c1ccc(O)c(O)c1O [MIM1] + Cc1cc(Nc2cc(N3CCN(C)CC3)nc(Sc3ccc(NC(=O)C4CC4)cc3)n2)n[nH]1 [Tozasertib] (partner 0.1 µM)
Reply: 0.0359

Ask: Ok, now Cc1csc(=NC2CCCCC2)n1/N=C/c1ccc(O)c(O)c1O [MIM1] + C[C@]1(O)C[C@@H](c2nc(-c3ccc4ccc(-c5ccccc5)nc4c3)c3c(N)nccn32)C1 [Linsitinib] (partner 1 µM)
Reply: 0.022

Ask: Next compound: Cc1csc(=NC2CCCCC2)n1/N=C/c1ccc(O)c(O)c1O [MIM1] + CS(=O)(=O)N1CCN(Cc2cc3nc(-c4cccc5[nH]ncc45)nc(N4CCOCC4)c3s2)CC1 [Pictilisib] (partner 1 µM)
Reply: 0.274
